# assayed_target: c-Src SH2;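 note: peptide library displayed on the E. coli surface as eCPX fusions, selected cells deep-sequenced, score is each peptide's frequency after selection divided by its frequency in the input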
# assay_details: SH2 binding enrichment of the phosphorylated peptide, bacterial display (enrichment ratio); higher = better substrate or ligand; peptides without Tyr show the background
Record true whenever SH2 binding enrichment is at 0.5 or higher; record false when lower.

seq_text | label
AKNKDYMSIIR [GNE_Y197] | true
HRGHLYLAIEF [TEK_Y899_Y897H_YF] | true
VLAAQYTTVGR [SGSH_Y240_D235V] | true
HKDNNYVSMWF [PAPOLG_Y432] | true
RVKTPYSLKRW [BMPR2_Y979] | true
LFDHIYTTQSD [RET_Y928] | true
CTTIHYNSMCN [TP53_Y234_Y236S] | true
GNKENYGLPQP [BUB1_Y538] | false
KRLKDYLMVLQ [USP25_Y425_T427M] | true
RPYRPYIIRGM [LRP5_Y1531] | true
SPQAHYRLSAF [ADAMTS9_Y100_S96P] | false
GKTQQYDCKWF [BCR_Y751_YF] | false
IIRYNYLLDVL [FGFR4_Y237_S232I] | true
FEKFLYFLPAS [DYNC2H1_Y346_H341Y_YF] | true
GRRNTCFASIA [ACADM_Y352_Y352C_YF] | true
FEEDSYSHVMA [FDPS_Y388_I391V_YF] | true
FSTSPYLLEAA [BRIP1_Y921_YF] | true
TKDTFYKQPMV [GBA_Y451_F456V] | false
GQKVAYGGTGD [ALDH3A1_Y305] | false
HLAQRYLIWEC [SCN5A_Y694_R689H] | true
IKNSGYISQYL [EIF2AK3_Y585_R588Q] | true
TLNHQYDYTFH [CSNK1A1_Y292_D297H] | true
CCKNRYDKDKP [THAP1_Y14_G9C] | true
SVTFTYSPALN [TP53_Y126_C124Y_YF] | false
FFSSEYHCVGG [CTSC_Y345_Y347C_YF] | true
SGGGLYRDMGA [CBX8_Y321] | true
FLNSIYQSRDE [ROS1_Y2227_K2228Q] | false

###

# assayed_target: Fes (UniProt P07332)
# Sequence (P07332 whole entry, looked up): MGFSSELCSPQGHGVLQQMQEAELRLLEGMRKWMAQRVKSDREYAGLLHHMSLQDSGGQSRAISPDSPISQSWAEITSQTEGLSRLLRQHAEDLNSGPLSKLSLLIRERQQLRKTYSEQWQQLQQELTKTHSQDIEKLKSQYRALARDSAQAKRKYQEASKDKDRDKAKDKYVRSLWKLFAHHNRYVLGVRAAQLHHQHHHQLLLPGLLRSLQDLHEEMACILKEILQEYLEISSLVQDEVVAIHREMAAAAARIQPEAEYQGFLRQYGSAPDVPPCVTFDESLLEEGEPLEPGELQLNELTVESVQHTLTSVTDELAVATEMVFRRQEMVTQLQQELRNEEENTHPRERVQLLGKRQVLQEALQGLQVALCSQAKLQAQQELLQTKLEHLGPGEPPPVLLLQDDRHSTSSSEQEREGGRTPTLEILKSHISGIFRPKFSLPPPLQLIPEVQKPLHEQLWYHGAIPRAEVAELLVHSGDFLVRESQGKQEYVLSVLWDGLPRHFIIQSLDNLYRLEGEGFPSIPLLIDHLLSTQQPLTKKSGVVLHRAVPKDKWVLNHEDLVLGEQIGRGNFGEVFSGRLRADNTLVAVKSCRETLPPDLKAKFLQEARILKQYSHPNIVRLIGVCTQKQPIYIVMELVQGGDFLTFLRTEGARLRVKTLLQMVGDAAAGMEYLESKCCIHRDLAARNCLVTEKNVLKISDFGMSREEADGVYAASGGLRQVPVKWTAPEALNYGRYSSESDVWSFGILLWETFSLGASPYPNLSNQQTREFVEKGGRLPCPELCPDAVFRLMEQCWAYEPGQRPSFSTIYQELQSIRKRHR
# assay_details: phosphorylation enrichment, bacterial display (enrichment ratio); higher = better substrate or ligand; peptides without Tyr show the background
measured_attribute: phosphorylation enrichment

seq_text | assayed_target | measured_attribute | assay_value
CPSLPYSPVSS [CAMKK2_Y128] | Fes (UniProt P07332) | phosphorylation enrichment | 0.847
SESSFYKSLNL [NGEF_Y289_A286S_YF] | Fes (UniProt P07332) | phosphorylation enrichment | 1.25
ERDYTYEELLN [EIF2S2_Y176] | Fes (UniProt P07332) | phosphorylation enrichment | 1.28
STFVPYEIKVQ [L1CAM_Y784] | Fes (UniProt P07332) | phosphorylation enrichment | 0.996
LASSEYPVQRR [GALK1_Y236_R239Q] | Fes (UniProt P07332) | phosphorylation enrichment | 1.32
VEDQFYCVDCF [FHL1_Y208_YF] | Fes (UniProt P07332) | phosphorylation enrichment | 1.29
FSTSPYLLEAA [BRIP1_Y921_YF] | Fes (UniProt P07332) | phosphorylation enrichment | 0.962

###

# System: AncSZ
# assay_details: phosphorylation enrichment, bacterial display (enrichment ratio); higher = better substrate or ligand; peptides without Tyr show the background
measured_attribute: phosphorylation enrichment

seq_text | assay_value
KFMVGYEMLAQ [GALT_Y339] | 0.88
APQYTYAQGGQ [FLNA_Y1763] | 0.72
DNAYQYMLTDR [MYH7_Y164] | 1.23
RVEDAYILTCN [CCT6A_Y229] | 1.07
CPASVYTKRCS [CPT2_Y508_R503C] | 0.598
REGKIYEFNQV [ZNF665_Y162_H157R_YF] | 0.795
MVIPNYSSRTE [UROC1_Y185] | 0.535
DFLSSYSAVNE [OAT_Y85_Q90E] | 0.896
TSPKSYPSQKH [CAP2_Y316] | 0.613
TNRSVYFKPSL [NUP153_Y382] | 0.667
LVSCAYQVARG [FGFR1_Y605] | 0.867
RFGRKYKKVRF [F8_Y442_I438F] | 0.708
SPRDTYSDRIG [CTPS1_Y567_S571I] | 0.445
PPGRSYSPYDY [TNS1_Y793] | 1.44
QYNIQYSSSAA [ERBB2IP_Y981] | 0.913
VNYGAYINDFN [GLB1_Y488_K493N] | 1
RRESQYQENRG [LRCH3_Y354] | 0.835
DVMDLYKTLRG [NR3C1_Y30_F29L] | 0.773
TLGPFYPSLLF [CRYAA_Y18_R21L] | 0.865
DVRQEYSGMIL [PLXND1_Y616_P617S] | 0.795
ILKPDYQPLAV [HYDIN_Y1072_I1077V] | 0.817
GNLLIYTELGK [HGD_Y166_F169L] | 1.46
GDYLSYREFHS [ERBIN_Y1107] | 2.1
AEYGLYRAMVR [VSX2_Y222_G223R] | 0.814
AAFNRYDQERF [CDC73_Y293_YF] | 0.665
RPYRPYIIRGM [LRP5_Y1531] | 0.949
ISRDVYSTDYY [NTRK2_Y702_M697I] | 1.83
KSIQLYDTPFE [SHB_Y297_G293S_YF] | 1.18
MKNQKYGRIIM [HSD17B4_Y143_K140N] | 0.527
HFVFFYSFLLK [PTEN_Y178_R173H_YF] | 2.18
EMQAAYQKVVA [HBD_Y131_Q126E] | 0.614
AAVDEYLEYRR [FAM221A_Y17] | 1.1
IIRYNYLLDVL [FGFR4_Y237_S232I] | 0.943
IMICAYLLHRG [PTEN_Y138_V133I] | 1.3
CLMILHRLKER [PTPRR_Y249_Y249H] | 1.05
KLKRSYCSPDI [USP8_Y717_S718C] | 0.538
GGSSPYSRRLA [CDK13_Y351_P356A] | 0.626
FSQETYFRVSN [ABCD1_Y180_Q178E_YF] | 1
PLDGEYFTLPI [TP53_Y327_Q331P] | 12.6
KDLPNYNWKSF [KISS1_Y112_N115K] | 0.655
HHTDEYEFDEL [TGM1_Y134_YF] | 1.38
VAMDDYLKNVM [LRRK2_Y707] | 0.903
ADYYDYGRGLS [KHDRBS3_Y304_H306R] | 3.83
HNVPICEGFAL [ACTC1_Y168_Y168C_YF] | 1.1
SSSPTYPDLPF [GLI3_Y168] | 0.839
RASSSYRETPS [SORBS1_Y79] | 0.681
RLLVVFPWTQR [HBB_Y36_Y36F] | 2.13
EDDIIYTQDFT [STK11_Y362] | 1.41
NTYEKYWLFYQ [GATM_Y103_P105L] | 1.26
RDSQIYAVDYE [MRPS34_Y34_L33I] | 1.86
HQEPVCSVAFS [TBL1X_Y509_Y509C] | 1.07
EVQKDYEHLFK [PAM16_Y77_N76D] | 0.885
CDTKLYTSVPN [DNTTIP2_Y427_A430V] | 0.96
VFDMLYQVANL [USP24_Y1087_L1089V] | 1.79
PPAPRYHHSAV [LZTR1_Y119] | 0.655

###

# assayed_target: MERTK (UniProt Q12866)
# Sequence (Q12866 whole entry, looked up): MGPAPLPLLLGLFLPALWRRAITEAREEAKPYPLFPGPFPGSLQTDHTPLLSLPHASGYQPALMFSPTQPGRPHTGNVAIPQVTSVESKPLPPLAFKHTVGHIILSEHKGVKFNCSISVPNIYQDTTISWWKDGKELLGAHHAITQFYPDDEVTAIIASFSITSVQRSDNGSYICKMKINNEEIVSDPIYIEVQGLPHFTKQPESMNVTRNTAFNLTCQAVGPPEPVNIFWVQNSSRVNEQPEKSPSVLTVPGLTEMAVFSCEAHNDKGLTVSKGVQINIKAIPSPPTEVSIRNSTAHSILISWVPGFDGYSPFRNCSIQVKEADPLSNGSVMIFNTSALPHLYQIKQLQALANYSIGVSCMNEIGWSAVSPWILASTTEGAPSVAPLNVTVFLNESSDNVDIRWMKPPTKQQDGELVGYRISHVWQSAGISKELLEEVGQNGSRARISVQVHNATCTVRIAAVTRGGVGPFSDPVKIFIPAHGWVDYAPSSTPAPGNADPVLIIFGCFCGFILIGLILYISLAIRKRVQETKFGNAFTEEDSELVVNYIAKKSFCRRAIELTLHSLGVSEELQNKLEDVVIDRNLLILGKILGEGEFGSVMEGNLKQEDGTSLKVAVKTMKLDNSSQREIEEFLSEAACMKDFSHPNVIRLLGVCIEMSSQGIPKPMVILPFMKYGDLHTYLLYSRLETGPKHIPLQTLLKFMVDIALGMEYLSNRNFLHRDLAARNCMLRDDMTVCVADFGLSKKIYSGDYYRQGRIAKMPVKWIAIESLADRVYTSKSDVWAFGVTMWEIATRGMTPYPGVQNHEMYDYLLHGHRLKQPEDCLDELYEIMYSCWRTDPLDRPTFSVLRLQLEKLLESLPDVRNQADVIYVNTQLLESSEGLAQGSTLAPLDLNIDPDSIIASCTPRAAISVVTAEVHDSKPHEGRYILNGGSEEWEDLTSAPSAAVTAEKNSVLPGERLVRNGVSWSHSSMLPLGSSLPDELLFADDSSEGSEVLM
# assay_details: phosphorylation enrichment, bacterial display (enrichment ratio); higher = better substrate or ligand; peptides without Tyr show the background
# maps each entry to its phosphorylation enrichment
measured_attribute: phosphorylation enrichment

seq_text | assay_value
YTTIHYNYMCN [TP53_Y234_C229Y] | 4.13
LSGFCYRLSDQ [PDCD6_Y124_G123C] | 0.566
PRLMLYNPTTY [EGFR_Y270_P266R] | 0.649
KDHRDYKFQPR [SOX9_Y172_P170R_YF] | 0.583
AQADIYKADFQ [IKBKG_Y308] | 0.399
NKEAIYSGFIR [SMCHD1_Y283_YF] | 12.7
FQEPVYSVAFS [TBL1X_Y509_H504Y_YF] | 11.7
ARGMEYLASQK [FGFR2_Y616] | 0.394
IMICAYLLHRG [PTEN_Y138_V133I] | 0.536
KPGVNYYFRVS | 0.392
CTTILYNYMCN [TP53_Y234_H233L] | 2.36
QEALEYFMKQI [PIK3CA_Y1038_M1043I] | 0.449
QHVPDYRQNVY [PCDHGA1_Y890] | 0.478
GDKKAYVRLAP [RPL23A_Y137_E133D] | 0.638
EQKRFYNAMKK [SCN5A_Y1495_K1493R_YF] | 0.387
CTTIHYNFMFN [TP53_Y234_C238F_YF] | 0.595
RSFPSYYTSHV [NEFL_Y442] | 7.71
ECKEAYHEGEC [PRKN_Y372] | 0.456
PPGRSYSPCDY [TNS1_Y793_Y796C] | 0.638
LARDIYKNDYY [ROS1_Y2110] | 0.426
NQDRTYFESVR [SPEN_Y632_YF] | 0.469
CTTIHYNYMGN [TP53_Y234_C238G] | 0.633
TVEDHDYEGGI [TKT_Y563_Y563D] | 0.49
GKFFQYDTWKQ [IGF2_Y116] | 0.485
SDVDLYQVRTA [PSMD9_Y70] | 0.411
FGSIMYEFVGK [SLC18A1_Y251_V249I] | 6.29
LEITWYPFDME [RIPOR2_Y316_V320M] | 0.608
CPASVYTKRCS [CPT2_Y508_R503C] | 0.447
FQSKHYACIRQ [TIMP3_Y182_YF] | 0.503

Data origin: the supplement of paper PMC10065799
